Entry source: ChEMBL document CHEMBL5726724

# studySystem: Cystathionine gamma-lyase (Homo sapiens, UniProt P32929)
# Sequence (P32929 whole entry): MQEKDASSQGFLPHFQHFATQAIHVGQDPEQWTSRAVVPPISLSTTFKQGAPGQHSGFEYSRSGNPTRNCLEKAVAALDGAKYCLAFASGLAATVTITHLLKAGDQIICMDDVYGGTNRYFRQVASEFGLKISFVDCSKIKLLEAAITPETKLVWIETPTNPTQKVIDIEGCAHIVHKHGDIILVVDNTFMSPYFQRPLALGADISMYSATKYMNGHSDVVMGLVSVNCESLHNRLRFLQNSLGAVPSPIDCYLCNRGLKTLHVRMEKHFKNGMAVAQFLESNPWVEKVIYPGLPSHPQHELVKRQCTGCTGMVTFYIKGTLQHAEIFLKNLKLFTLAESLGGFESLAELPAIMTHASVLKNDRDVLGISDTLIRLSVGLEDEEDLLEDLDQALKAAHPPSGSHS
pIC50: −log10 of the molar value.
assayMetric: pIC50

Memo: `C#CC[C@@H](N)C(=O)O` , reported pIC50: < 4.00

Memo: N#CCC(N)C(=O)O (configuration not stated) , reported pIC50: > 4.60

Memo: `C#CC[C@H](N)c1ncn[nH]1` , reported pIC50: > 4.60

Memo: C#CCC(N)C(=O)O (configuration not stated) , reported pIC50: > 4.60

Memo: `C#CC[C@H](N)c1nc(C(F)(F)F)n[nH]1` , reported pIC50: < 4.00

Memo: `C#CC[C@H](N)c1nc(N)n[nH]1` , reported pIC50: < 4.00

Memo: `C#CC[C@H](N)c1noc(=O)[nH]1` , reported pIC50: > 4.60
